Ref: patent US20090275594A1

Can you tell me MIC (μg/mL) C Strain for the items I'm about to list?
Test system: Methicillin-resistant Staphylococcus aureus OC 3726 COL
Assay: In vitro antibacterial activity, microdilution broth MIC (NCCLS M7-A4), strain C
Format: cell-based
Conditions: cation adjusted Mueller-Hinton broth, 35° C., 16-20 hours
Description: Minimum inhibitory concentration (MIC) is an indicator of in vitro antibacterial activity. […] The in vitro antimicrobial activity of representative compounds of the present invention was determined by the microdilution broth method following the test method from the National Committee for Clinical Laboratory Standards (NCCLS). […]

COMPOUND: COC1C=COC2(C)Oc3c(C)c(O)c4c(O)c(c(C=NN5CCN(Cc6cc(-c7ccc(F)cc7)no6)CC5)c(O)c4c3C2=O)NC(=O)C(C)=CC=CC(C)C(O)C(C)C(O)C(C)C(OC(C)=O)C1C (stereo not drawn) [Compound 5]
MEASURED_PROPERTY: MIC (μg/mL) C Strain
OBSERVED_MEASUREMENT: 0.12 µg/mL

Now for another entry.
Q. Indicate its recorded MIC (μg/mL) C Strain; the compound in question is COC1C=COC2(C)Oc3c(C)c(O)c4c(O)c(c(C=NN5CCN(Cc6cc(-c7ccc(NC(C)=O)cc7)no6)CC5)c(O)c4c3C2=O)NC(=O)C(C)=CC=CC(C)C(O)C(C)C(O)C(C)C(OC(C)=O)C1C (stereo not drawn) [Compound 16]
A. 0.06 µg/mL
